# experimental_protocol: Basic photochemical properties: one-photon photolysis / quantum yield determination by comparison with MNI-Glu
# Type: physicochemical
# measurement_setup: product of extinction coefficient and quantum yield; in M-1 cm-1 (unit assumed)
observed_property: ε · φ
// return a plain number; no unit text

NCCCC(=O)N1CCc2c(OCC(=O)O)c([N+](=O)[O-])cc([N+](=O)[O-])c21 : 5160
NC(CCC(=O)N1CCc2c(OCC(=O)O)ccc([N+](=O)[O-])c21)C(=O)O (centres unmarked) [CNI-Glu, 4-carboxymethoxy-7-nitroinlinylglutamate] : 430
COc1ccc([N+](=O)[O-])c2c1CCN2C(=O)CC[C@H](N)C(=O)O [MNI-Glu, Methoxynitroindoline-caged L-glutamate, reference compound] : 366

Would you kindly look at the next entry?
I would be grateful if you could share the reported ε · φ for NCCCC(=O)N1CCc2c(OCC(=O)O)ccc([N+](=O)[O-])c21 .
430

FYI, the data here is from patent US8642785B2.
